Where these numbers come from: the supplement of paper PMC10065799

Each entry below carries its reported phosphorylation enrichment.
- System: c-Src
- ASSAY_PROTOCOL: phosphorylation enrichment, bacterial display (enrichment ratio); higher = better substrate or ligand; peptides without Tyr show the background
Lab note: jot the number down without any unit.

// below: answered sequences
SEQ_STRING | phosphorylation enrichment
DRLASYLDKLR [KRT12_Y139_V143L] | 0.498
FAGRDYSLDEF [MYOF_Y1705_G1701A_YF] | 0.572
NACGLYFKLHN [GATA2_Y376_YF] | 0.358
TVFSDYLHPQY [CCPG1_Y569] | 0.498
RSYSPCDYQPC [TNS1_Y796_Y796C] | 1.56
FKGKKYKPLDL [RPL35_Y78_YF] | 0.533
YLNSSYINIST [IL23R_Y178_T175N] | 0.436
SSMNDYNPLEK [MYOC_Y479_I477N] | 0.502

Requested field: phosphorylation enrichment. Item: KGEDFYCVTFH [FHL1_Y149_C153Y_YF]
1.47

# phosphorylation enrichment lookup, item FASTGYGIAIQ [GRIN2B_Y762]
0.408

# input sequence: WLQKLYNNFVN [MYO5C_Y526] ; wanted: its phosphorylation enrichment
0.501

For the sequence shown here, SYCYRYRCAAW [SUMF1_Y344_R349W] , give the reported phosphorylation enrichment.
0.471

Which phosphorylation enrichment reading was recorded for the sequence AQAGEYGAEAL [HBA1_Y25_H21Q] ?
0.33

// returns reported phosphorylation enrichment for input LREKVYVSLEA [RXRA_Y397_A398V]
1.36

Please look up its phosphorylation enrichment: SASQEYHIVKK [PDZD2_Y557]
0.441

----------
- SYSTEM_TESTED: Grb2 SH2 (UniProt P62993)
- Sequence (P62993 whole entry, looked up): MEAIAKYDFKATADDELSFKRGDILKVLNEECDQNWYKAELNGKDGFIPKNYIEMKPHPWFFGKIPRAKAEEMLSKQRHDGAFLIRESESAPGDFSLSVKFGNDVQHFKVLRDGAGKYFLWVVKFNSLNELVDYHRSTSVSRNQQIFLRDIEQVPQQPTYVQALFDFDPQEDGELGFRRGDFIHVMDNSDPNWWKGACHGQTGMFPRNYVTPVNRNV
- ASSAY_PROTOCOL: SH2 binding enrichment of the phosphorylated peptide, bacterial display (enrichment ratio); higher = better substrate or ligand; peptides without Tyr show the background
PROPERTY_NAME: SH2 binding enrichment
Keep the answer to the number alone.

SEQ_STRING | SYSTEM_TESTED | DATA_VALUE
LHNLFYQLEAE [PKP2_Y616_S615F] | Grb2 SH2 (UniProt P62993) | 1.02
GFEEAYSVSKK [PAFAH1B1_Y28_F31S_YF] | Grb2 SH2 (UniProt P62993) | 1.01
NPSFNYEIVNQ [DYNC1H1_Y3379_R3384Q_YF] | Grb2 SH2 (UniProt P62993) | 0.78
FSLPAFMDRRD [COX4I1_Y38_Y38F] | Grb2 SH2 (UniProt P62993) | 1.02
GSSSSCGQHGS [HRNR_Y517_Y517C] | Grb2 SH2 (UniProt P62993) | 0.982
YRDMDYRSYPH [RBM10_Y41_R46H] | Grb2 SH2 (UniProt P62993) | 0.998

// query SH2 binding enrichment value for entry YLELNYKEDEY [MME_Y502]
0.802

----------
- SYSTEM_TESTED: Fes (UniProt P07332)
- Sequence (P07332 whole entry, looked up): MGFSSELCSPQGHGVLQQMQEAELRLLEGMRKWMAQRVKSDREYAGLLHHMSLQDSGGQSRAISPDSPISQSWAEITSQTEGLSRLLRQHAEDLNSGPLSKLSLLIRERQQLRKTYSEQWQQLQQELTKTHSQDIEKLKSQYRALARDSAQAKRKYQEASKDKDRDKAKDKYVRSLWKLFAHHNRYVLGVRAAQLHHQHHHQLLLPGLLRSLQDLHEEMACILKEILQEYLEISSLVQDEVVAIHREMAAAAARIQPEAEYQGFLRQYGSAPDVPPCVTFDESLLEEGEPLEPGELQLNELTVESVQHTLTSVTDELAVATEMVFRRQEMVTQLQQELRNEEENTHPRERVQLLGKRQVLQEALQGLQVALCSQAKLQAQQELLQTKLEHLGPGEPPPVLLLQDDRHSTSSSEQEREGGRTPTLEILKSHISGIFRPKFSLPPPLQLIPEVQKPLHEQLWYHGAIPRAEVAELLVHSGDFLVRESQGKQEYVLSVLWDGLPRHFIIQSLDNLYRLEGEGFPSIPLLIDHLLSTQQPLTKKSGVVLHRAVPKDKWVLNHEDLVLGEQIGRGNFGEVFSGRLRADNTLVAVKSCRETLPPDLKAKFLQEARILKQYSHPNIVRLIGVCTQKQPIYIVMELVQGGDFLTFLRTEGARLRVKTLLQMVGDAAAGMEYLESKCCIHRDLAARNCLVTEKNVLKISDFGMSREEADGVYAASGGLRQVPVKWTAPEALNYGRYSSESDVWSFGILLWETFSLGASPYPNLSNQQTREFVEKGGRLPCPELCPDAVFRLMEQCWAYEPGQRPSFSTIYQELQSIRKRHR
- ASSAY_PROTOCOL: phosphorylation enrichment, bacterial display (enrichment ratio); higher = better substrate or ligand; peptides without Tyr show the background
Mark Condition met for reported phosphorylation enrichment of 1 or greater; mark Condition not met for anything smaller.

SEQ_STRING | GROUP
STSKTYVISRT [RBBP6_Y87] | Condition not met
IIEDPYFGNDF [ACP1_Y132_S137F_YF] | Condition met
RRVEPYGENFN [APOA4_Y310] | Condition met
ITRDEYPSNPM [CEMIP2_Y1015] | Condition not met
LLILEYAKYGS [RET_Y806_V804L] | Condition met
NFYEYYVDDPP [GCHFR_Y48] | Condition met

Evaluate QFQEKYKQVEQ [HCN4_Y531_YF] : phosphorylation enrichment at minimum 1?
Condition met

Say whether LYIDSYEKDVA [PGM1_Y521] shows phosphorylation enrichment of 1 or more.
Condition met

API: above_or_equal(metric=phosphorylation enrichment, cutoff=1) for item DFLSSYSAVKQ [OAT_Y85_N89K]
Condition met

Tell me whether phosphorylation enrichment is at least 1 here: HFNLTYRILSF [MMP23B_Y95]
Condition met

Tell me whether phosphorylation enrichment is at least 1 here: LRRREYQRQDF [PRKRIP1_Y90_YF]
Condition not met

hey, is phosphorylation enrichment for this one >= 1? RLAKTYETTLE [ALB_Y377]
Condition met

----------
- SYSTEM_TESTED: FGFR1 (UniProt P11362)
- Sequence (P11362 whole entry, looked up): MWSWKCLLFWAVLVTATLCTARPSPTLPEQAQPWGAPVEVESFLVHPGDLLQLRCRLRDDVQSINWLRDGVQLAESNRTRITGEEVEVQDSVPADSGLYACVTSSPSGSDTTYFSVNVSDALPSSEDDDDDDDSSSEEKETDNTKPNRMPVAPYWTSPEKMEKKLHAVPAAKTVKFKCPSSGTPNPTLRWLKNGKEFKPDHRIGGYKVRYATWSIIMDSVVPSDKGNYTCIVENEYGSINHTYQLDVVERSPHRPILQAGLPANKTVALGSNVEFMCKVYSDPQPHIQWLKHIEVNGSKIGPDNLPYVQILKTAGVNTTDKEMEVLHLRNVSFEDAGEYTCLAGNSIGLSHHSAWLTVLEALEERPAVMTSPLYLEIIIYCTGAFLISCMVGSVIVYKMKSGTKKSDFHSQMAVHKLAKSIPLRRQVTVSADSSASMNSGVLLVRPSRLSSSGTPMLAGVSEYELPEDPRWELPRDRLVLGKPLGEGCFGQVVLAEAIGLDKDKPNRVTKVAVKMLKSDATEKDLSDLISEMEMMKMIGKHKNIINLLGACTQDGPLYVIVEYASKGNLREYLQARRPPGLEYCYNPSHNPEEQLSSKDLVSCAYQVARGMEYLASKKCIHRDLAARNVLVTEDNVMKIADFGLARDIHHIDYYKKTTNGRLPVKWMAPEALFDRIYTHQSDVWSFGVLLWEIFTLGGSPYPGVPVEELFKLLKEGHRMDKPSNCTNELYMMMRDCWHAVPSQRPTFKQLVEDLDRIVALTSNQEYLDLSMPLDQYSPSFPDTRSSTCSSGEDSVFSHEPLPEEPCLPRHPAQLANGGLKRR
- ASSAY_PROTOCOL: phosphorylation enrichment, bacterial display (enrichment ratio); higher = better substrate or ligand; peptides without Tyr show the background
PROPERTY_NAME: phosphorylation enrichment
Output spec: single numeric token, no unit.

Previously resolved entries follow.
SEQ_STRING | SYSTEM_TESTED | DATA_VALUE
KVNKIYFPDFI [LIG3_Y767_YF] | FGFR1 (UniProt P11362) | 1.24
LVLIKYLPEWT [PSEN1_Y240_F237L] | FGFR1 (UniProt P11362) | 0.547
VHNLDYFKETT [FGFR3_Y647_K650E_YF] | FGFR1 (UniProt P11362) | 0.597
DPADRYLIEQC [CDKL5_Y286_T288I] | FGFR1 (UniProt P11362) | 0.587
KFMVGYEMLAK [GALT_Y339_Q344K] | FGFR1 (UniProt P11362) | 0.776

For FLLRVYSIFSK [SGCE_Y38_T36R] , what is its reported phosphorylation enrichment?
0.574

For FFCRWYRNQKS [EREG_Y144_R147Q_YF] , what is its reported phosphorylation enrichment?
0.347

Requested field: phosphorylation enrichment. Item: QRAADYFSQQM [GBP6_Y333_YF]
0.558

----------
- Tested on: c-Src
- ASSAY_PROTOCOL: phosphorylation enrichment, bacterial display (enrichment ratio); higher = better substrate or ligand; peptides without Tyr show the background
Measured phosphorylation enrichment accompanies every entry in the list below.
// return just the number, without any unit appended

Solved cases below.
SEQ_STRING | phosphorylation enrichment
QRALLYEDALY [UNC13D_Y56] | 6.09
ETGNLYIAKVE [CNTN4_Y180] | 0.391
GRIHSYRGHLW [VHL_Y112_R107G] | 0.347
YGGRDYSLDEF [MYOF_Y1705] | 0.594
CTTIHYNYMWN [TP53_Y234_C238W] | 0.496
MSRNLYSGDCF [DDR2_Y736_Y740C_YF] | 1.93
NQSVRYDSSLK [ABCC8_Y1353_L1349Q] | 0.433
CATIHYNFMCN [TP53_Y234_T230A_YF] | 0.525

What value of phosphorylation enrichment has been reported for the following sequence? IVLRSYPASDH [NID2_Y449_G453D]
0.416

phosphorylation enrichment for KLVRLYAVVTR [LYN_Y306] ?
0.611

Tell me the measured phosphorylation enrichment of EQLRAYLEGTC [HLA-C_Y183] , please.
0.423

Tell me the measured phosphorylation enrichment of SETSRYLSDLF [KCNJ3_Y67] , please.
0.549

Which phosphorylation enrichment is reported for this sequence? IQKWEYVPLGP [FAH_Y244]
0.453

Endpoint output: phosphorylation enrichment of NFRTIYVNANE [KCNH2_Y475_T474I] . Value?
0.44

Need phosphorylation enrichment of EREFKYGAHKF [OAT_Y50_N54K_YF] , thanks.
0.423

Which phosphorylation enrichment is reported for this sequence? GADDSYFTARS [ZAP70_Y492_YF]
0.417

Find the recorded phosphorylation enrichment belonging to FDGKDYIALKE [HLA-A_Y147_N151K_YF] and report it.
0.489

Dear colleague, I am looking for the recorded phosphorylation enrichment of the following sequence: PSPTKYSLSPS [RANBP2_Y785_R784K]
0.514

----------
- SYSTEM_TESTED: EPHB2 (UniProt P29323)
- Sequence (P29323 whole entry, looked up): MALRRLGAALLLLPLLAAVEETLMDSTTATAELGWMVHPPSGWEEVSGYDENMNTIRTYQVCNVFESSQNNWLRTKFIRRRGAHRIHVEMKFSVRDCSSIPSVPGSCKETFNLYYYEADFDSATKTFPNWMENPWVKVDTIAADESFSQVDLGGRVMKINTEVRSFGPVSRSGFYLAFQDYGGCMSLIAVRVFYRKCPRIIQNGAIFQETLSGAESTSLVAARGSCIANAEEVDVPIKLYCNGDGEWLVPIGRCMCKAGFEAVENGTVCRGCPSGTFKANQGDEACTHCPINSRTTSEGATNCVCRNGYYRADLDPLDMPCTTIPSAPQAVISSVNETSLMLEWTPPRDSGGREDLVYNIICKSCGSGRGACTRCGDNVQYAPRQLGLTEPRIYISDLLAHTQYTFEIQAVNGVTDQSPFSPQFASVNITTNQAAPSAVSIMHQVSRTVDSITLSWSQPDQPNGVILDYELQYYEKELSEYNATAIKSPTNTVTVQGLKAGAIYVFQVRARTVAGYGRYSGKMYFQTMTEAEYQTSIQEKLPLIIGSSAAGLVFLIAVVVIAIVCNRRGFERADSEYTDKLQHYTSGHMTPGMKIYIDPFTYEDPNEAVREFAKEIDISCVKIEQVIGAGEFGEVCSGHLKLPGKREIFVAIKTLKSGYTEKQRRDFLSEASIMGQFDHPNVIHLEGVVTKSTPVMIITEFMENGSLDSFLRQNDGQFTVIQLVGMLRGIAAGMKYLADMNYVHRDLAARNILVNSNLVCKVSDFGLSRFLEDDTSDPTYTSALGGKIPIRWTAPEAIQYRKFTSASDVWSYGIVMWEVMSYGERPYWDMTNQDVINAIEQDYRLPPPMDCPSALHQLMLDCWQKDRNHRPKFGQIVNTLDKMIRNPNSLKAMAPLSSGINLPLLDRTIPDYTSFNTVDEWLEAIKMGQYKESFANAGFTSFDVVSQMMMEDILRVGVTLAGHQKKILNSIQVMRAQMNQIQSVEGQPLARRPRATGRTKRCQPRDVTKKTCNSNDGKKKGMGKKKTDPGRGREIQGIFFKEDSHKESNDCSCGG
- ASSAY_PROTOCOL: phosphorylation enrichment, bacterial display (enrichment ratio); higher = better substrate or ligand; peptides without Tyr show the background
PROPERTY_NAME: phosphorylation enrichment

Some solved cases for reference:
SEQ_STRING | SYSTEM_TESTED | phosphorylation enrichment
VNKIFYPDFIV [LIG3_Y768_YF] | EPHB2 (UniProt P29323) | 0.928
AKAEIYEMRPL [COX10_Y97] | EPHB2 (UniProt P29323) | 6.54
KEKLCYVALDF [ACTA1_Y220] | EPHB2 (UniProt P29323) | 0.676
LSVEIYDRREF [ITGB7_Y753_YF] | EPHB2 (UniProt P29323) | 0.483
LEFNEYFRDLN [HPRT1_Y198_D194E_YF] | EPHB2 (UniProt P29323) | 1.15

Fill in: phosphorylation enrichment of YQRITYHNWRH [PDE6B_Y556_R552Q] is ___
0.483

May I ask what phosphorylation enrichment has been recorded for KMKGDYYRYLA [YWHAG_Y130] ?
1.36

Look up phosphorylation enrichment for this sequence: LNWIFYKDQTG [RS1_Y166_YF]
0.306

Name the reported phosphorylation enrichment value associated with the sequence PVKSEYPSIKL [NPC2_Y119]
0.562

Entry LDLPGYCPLRE [CCDC116_Y291] : reported phosphorylation enrichment = ?
0.668

Requested read-out: phosphorylation enrichment. Entry: ASGKYYAMKIL [AKT3_Y174]
0.407
